- Test: inhibition of 3D7 malaria parasite growth – strain 3D7 (AID 2306);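 further: 0% = DMSO wells and 100% = chloroquine plus artemisinin control wells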
- Protocol Conditions: P. falciparum 3D7 erythrocytic growth, LDH absorbance, 72 h; at 2 µM; active compounds read high
The reader will find reported growth inhibition values listed item by item below.
Enter your answer as a number in %; do not include the unit.

Consider the reported growth inhibition for these molecules:
| Molecule | Unit Of Measurement | Numeric Value |
| --- | --- | --- |
| O=C(NC1CC1)c1cnc(N2CCN(Cc3ccc(Cl)cc3)CC2)c(Cl)c1 | % | 93 |
| COCc1nc(-c2ccccc2)nc(N2CCN(C(=O)NC(C)C)CC2)c1Cc1ccccc1F | % | 96 |
| CC1(CCCCN2CCC(Cc3ccccc3)CC2)C(=O)Nc2ccccc21 (stereo not given) | % | 100 |
| COc1cccc(CNC[C@@H](O)[C@H](Cc2ccccc2)NC(=O)c2cc(C(C)C)cc(N3CCCC3=O)c2)c1 | % | 95 |
| COc1ccc(CNC2CCN(C)CC2)cc1-c1cccc(S(=O)(=O)NCc2ccccc2)c1 | % | 101 |
| O=C(Nc1ccc(Cn2nc(Cl)c(N3CCCNCC3)cc2=O)cc1)c1ccc(-c2ccccc2)cc1 | % | 87 |
| CNC(=O)C1Cc2c([nH]c3c(C)cccc23)C2(N1)C(=O)Nc1ccc(OC(F)(F)F)cc12 (stereo not given) | % | 100 |
| COc1ccc2ncc(Cl)c(CCN3C[C@H](CNCc4ccc5c(n4)NC(=O)CS5)[C@H](O)C3)c2n1 | % | 94 |
| CCn1ccc2c(N3CCCS3(=O)=O)cc(C(=O)N[C@@H](Cc3ccccc3)[C@H](O)CNC(C)(C)c3cccc(OC)c3)cc21 | % | 99 |
| CCOC(=O)NC1=NC(C)(C)N(OCc2ccc(Cl)c(Cl)c2)C(NC(=O)OCC)=N1 | % | 98 |

# lookup: growth inhibition of CC(C)CNC(=O)c1cncc(-c2ccc(CN3CCC(N4CCCC4)CC3)cc2)c1
100

# lookup: growth inhibition of COc1ccc(-c2ccc(NC(=O)c3cccc(Cl)c3)cc2)cc1CNC(C)C
100

# lookup: growth inhibition of CC(=O)Nc1ccc([N+](=O)[O-])c2c(Br)cccc12
100

# lookup: growth inhibition of CCC(=O)Nc1cc(=O)[nH]c2nc(-c3ccc(Cl)cc3)nn12
84

# lookup: growth inhibition of CC1(C)N=C(N)N=C(N)N1OCCCOc1cc(Cl)ccc1Cl
96

----------
- Test: inhibition of 3D7 malaria parasite growth – strain 3D7 (AID 2306);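 further: 0% = DMSO wells and 100% = chloroquine plus artemisinin control wells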
- Protocol Conditions: P. falciparum 3D7 erythrocytic growth, LDH absorbance, 72 h; at 2 µM; active compounds read high
Quantity: growth inhibition (%)
Enter your answer as a number in %; do not include the unit.

Consider the reported growth inhibition for these molecules:
| Molecule | growth inhibition, % |
| --- | --- |
| CN1CCN(c2ccc(Nc3c(C(N)=O)cnc4cc(-c5ccoc5)ccc34)cc2C(F)(F)F)CC1 | 100 |
| COc1ccc(CNC2Cc3ccccc3C2)cc1-c1ccc(S(=O)(=O)NCCN2CCCC2)c(F)c1 | 101 |
| CNS(=O)(=O)c1ccc(NC(=O)c2cc(-c3cccnc3)nc3ccc(Br)cc23)cc1 | 101 |
| Cc1noc(C)c1-c1cccc(C(=O)NC2CCN(CCNC(=O)C(c3ccccc3)c3ccccc3)CC2)c1 | 85 |
| Cc1ccc2nc(-c3cc(-c4ccc(OCc5ccccc5)cc4)cnc3N)[nH]c2c1 | 91 |

# lookup: growth inhibition of CN(C(=O)Nc1ccc(F)cc1)C1CCN(CCCCCNC(=O)/C=C/c2ccc(Cl)c(Cl)c2)CC1
89

----------
- Test: antimalarial activity against Dd2 strain (AID 2302);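 further: 0% = DMSO untreated growth and 100% = chloroquine plus artemisinin killed control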
- Protocol Conditions: P. falciparum Dd2 in RBCs, LDH growth readout, 72 h; at 2 µM
The source made the active and inactive calls.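 How the source made its calls: active means growth inhibition above 50% at the single 2 µM test dose, taken to imply half-maximal potency below 2 µM; inactive means the rest.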
I would appreciate it if you answered using one of these outcomes: active, inactive

Any idea what this test logged for CCN1CCC(N(CCCCCCCCc2ccc(C(F)(F)F)cc2)C(=O)Cn2c(CCc3cccc(F)c3F)cc(=O)c3ccccc32)CC1 ?
active

Any idea what this test logged for CC(C)COc1ccc(Cl)cc1Nc1nc(-c2nc3ccccc3[nH]2)cs1 ?
inactive

Any idea what this test logged for Cc1cc(NC(=O)CCN2CCN(c3cccc(Cl)c3Cl)CC2)ccc1N1CCN(C(C)C)CC1 ?
inactive

Any idea what this test logged for COc1cc(CNCCCNc2cc(=O)c3ccccc3[nH]2)c2c(c1)C(C)CN2C(=O)OC(C)(C)C (centres undefined) ?
active

----------
- Test: inhibition of 3D7 malaria parasite growth – strain 3D7 (AID 2306);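 further: 0% = DMSO wells and 100% = chloroquine plus artemisinin control wells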
- Protocol Conditions: P. falciparum 3D7 erythrocytic growth, LDH absorbance, 72 h; at 2 µM; active compounds read high
The reader will find reported growth inhibition values listed item by item below.
Enter your answer as a number in %; do not include the unit.

Consider the reported growth inhibition for these compounds:
| Compound | growth inhibition / % |
| --- | --- |
| O=C(Nc1ccc(Cn2ncc(N3CCCNCC3)c(Cl)c2=O)cc1)Nc1cccc(C(F)(F)F)c1 | 101 |
| Cc1[nH]c(C)c(-c2ccc(-c3ccc(OC(F)(F)F)cc3)nc2)c(=O)c1Br | 97 |
| Cc1c(CCc2cccc(F)c2F)[nH]c2ccccc2c1=O | 91 |

# lookup: growth inhibition of Cc1nn(C)c(C)c1CN(Cc1nc(-c2cccc(Oc3ccccc3)c2)oc1C)C1CC1
101

----------
- Test: inhibition of 3D7 malaria parasite growth – strain 3D7 (AID 2306);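 further: 0% = DMSO wells and 100% = chloroquine plus artemisinin control wells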
- Protocol Conditions: P. falciparum 3D7 erythrocytic growth, LDH absorbance, 72 h; at 2 µM; active compounds read high
The reader will find reported growth inhibition values listed item by item below.
Enter your answer as a number in %; do not include the unit.

Consider the reported growth inhibition for these compounds:
| Compound | Quantity | Numeric Value |
| --- | --- | --- |
| Cc1ccccc1C1CCN(C2CCC(NC(=O)/C=C/c3c[nH]c4ccccc34)CC2)CC1 (centres undefined) | growth inhibition | 100 |
| Cc1nnsc1C(=O)Nc1cccc(-c2csc(-c3nc4ccccc4[nH]3)c2)c1 | growth inhibition | 94 |
| CCN(CC)CCCC(C)Nc1c2cc(OC)ccc2nc2cc(Cl)c([N+](=O)[O-])cc12 (centres undefined) | growth inhibition | 100 |

Let's switch to this compound now.
# lookup: growth inhibition of c1ccc(CN2CCCN(c3ccc4c(c3)CCN(Cc3ccc(-c5ncc[nH]5)cc3)CC4)CC2)cc1
100

----------
- Target: L-lactate dehydrogenase (Plasmodium falciparum (isolate CDC / Honduras))
- Test: PfLDH activity inhibition – cell lysate, 3D7 strain, counter-screen for P. falciparum growth inhibition project (AID 2304);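 further: 0% = vehicle and 100% = reference inhibitor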
- Protocol Conditions: P. falciparum 3D7 crude extract, LDH APAD/NBT absorbance; at 2 µM; active compounds read high
Quantity: inhibition (%)
Enter your answer as a number in %; do not include the unit.

Consider the reported inhibition for these compounds:
| Compound | Quantity | Numeric Value |
| --- | --- | --- |
| COc1ccc(CN(C)CCCc2ccc(NC(=O)c3cccc4c(=O)c5ccccc5[nH]c34)cc2)cc1OC | inhibition | -1 |
| O=C(/C=C/c1cccc(Cl)c1)N1CCC(C(O)CN2CCC3(CC2)CN(C(=O)/C=C/c2cccc(Cl)c2)c2ccccc23)CC1 (stereo not drawn) | inhibition | 0 |
| CN(CCC(CCN1CCC(c2c[nH]c3ccccc23)CC1)c1ccccc1)C(=O)Nc1ccc(Cl)c(Cl)c1 (stereo not drawn) | inhibition | 3 |

# lookup: inhibition of COc1ccc2nccc([C@@H](O)CN3CCC(NCc4ccc5nc[nH]c(=O)c5c4)CC3)c2c1
-13

# lookup: inhibition of Cc1nccn1CCNC(=O)CN1CCC2(CCC1=O)CC(=O)c1ccccc1O2 (stereo not drawn)
7

----------
- Test: inhibition of 3D7 malaria parasite growth – strain 3D7 (AID 2306);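 further: 0% = DMSO wells and 100% = chloroquine plus artemisinin control wells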
- Protocol Conditions: P. falciparum 3D7 erythrocytic growth, LDH absorbance, 72 h; at 2 µM; active compounds read high
Quantity: growth inhibition (%)
Enter your answer as a number in %; do not include the unit.

Consider the reported growth inhibition for these molecules:
| Molecule | growth inhibition, % |
| --- | --- |
| COc1cc(NC(=O)/C=C/c2cc(F)cc(F)c2F)cc(OCCN2CCN(CCN3CCOCC3)CC2)c1 | 102 |
| COc1ccc(NC(=O)[C@H](Cc2ccccc2)Nc2nc(NCCN3CCCC3)ncc2C)cc1 | 89 |

# lookup: growth inhibition of COc1ccc(-c2cccc(NC(=O)c3cccc(C#N)c3)c2)cc1CN1CCN(C)CC1
91

# lookup: growth inhibition of N#Cc1cccc([C@H](O)[C@@H]2CN(CCC3CCCCC3)CC[C@@]2(O)c2ccccc2)c1
98

# lookup: growth inhibition of COc1ccccc1Oc1c(N(C)S(=O)(=O)c2ccc(C(C)C)cc2)nc(C(F)(F)F)nc1N(C)S(=O)(=O)c1ccc(C(C)C)cc1
94

# lookup: growth inhibition of CCCC(CNCc1cccc(I)c1)CNc1cc(=O)c2ccccc2[nH]1 (centres undefined)
100

# lookup: growth inhibition of C[C@@H]1CN(c2cnn(C/C=C/c3ccc(NC(=O)c4ccc(Cl)cc4)cc3)c(=O)c2Cl)C[C@H](C)N1
88

# lookup: growth inhibition of CC(C)(C)[C@@H](Nc1ccc(C#N)c2ccccc12)C(=O)NC1(Cc2ccc(O)cc2)CCCC1
90

# lookup: growth inhibition of CCn1c(-c2nonc2N)nc2cnc(Oc3cccc(NC(=O)c4ccc(OCCN5CCCC5)cc4)c3)cc21
92

# lookup: growth inhibition of Cc1ccc(F)cc1-c1cc(N2CCCN(C(=O)c3ccc(Br)o3)CC2)ncn1
94

# lookup: growth inhibition of C[C@@H](N)C#Cc1cc2c(Nc3ccc(OCc4cccc(F)c4)c(Cl)c3)ncnc2s1
89

# lookup: growth inhibition of O=C(Nc1ccc(-c2cccc(-c3nc4ccccc4[nH]3)c2)cc1)c1cnn2cccnc12
99

meta.source: PubChem BioAssay
